Entry source: the RNAGym collection of RNA variant scans (doi:10.1126/science.aae0568)

B1: tRNA (parent)
chain: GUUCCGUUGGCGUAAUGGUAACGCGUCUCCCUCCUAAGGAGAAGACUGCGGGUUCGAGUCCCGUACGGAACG

- Variants of: B1
- procedure_summary: yeast fitness relative to wild type (ratio to wild type); higher = fitter; tRNA-Arg(CCU), competitive growth, 37 C, YPD
This sample holds only a part of the variants without activity.
reported_endpoint: yeast fitness
Please give only the number in your answer, with no unit.

# example entries with known answers
[
  {
    "variant": "G23C G68A",
    "yeast fitness": 0.719
  },
  {
    "variant": "U2G G12A A14G",
    "yeast fitness": 0.561
  },
  {
    "variant": "A45C C55U",
    "yeast fitness": 0.692
  },
  {
    "variant": "U3C A43C A65U",
    "yeast fitness": 0.604
  },
  {
    "variant": "U53A A69C",
    "yeast fitness": 0.622
  }
]

[ask] Which measured yeast fitness value corresponds to A43G A45G A70G ?
[reply] 0.532

[ask] Which measured yeast fitness value corresponds to U16G G68C A69G ?
[reply] 0.556

[ask] Which measured yeast fitness value corresponds to C5G A14C C29A C31G ?
[reply] 0.529

[ask] Which measured yeast fitness value corresponds to G6A A37G ?
[reply] 0.722

[ask] Which measured yeast fitness value corresponds to G9C C11A U47G A69C ?
[reply] 0.601

[ask] Which measured yeast fitness value corresponds to G10A A15C G25A C66U ?
[reply] 0.543

[ask] Which measured yeast fitness value corresponds to A14G G41C C46A ?
[reply] 0.791

[ask] Which measured yeast fitness value corresponds to A36G A65U ?
[reply] 0.991

[ask] Which measured yeast fitness value corresponds to G9A C27G C34A C46G C55A ?
[reply] 0.508

[ask] Which measured yeast fitness value corresponds to G41C G48C A69U ?
[reply] 0.558

[ask] Which measured yeast fitness value corresponds to U16G G41A A69U ?
[reply] 0.527
